target: recombinant soluble VZV glycoprotein C ectodomain (VZV rSgC) (Varicella zoster virus, Dumas strain); experiment: SPR; multi-cycle kinetics, Biacore X-100: rSgC or IgD amine-coupled on a CM4 chip; different chemokine concentrations at 30 ul/min, 180 s contact, 600 s dissociation, HBS-EP pH 7.4; global fit to a 1:1 Langmuir model
reported.metric: Kd (nM)
Give just the numeric value; nM need not be written.

Request: Supply Kd value. Item: CXCL13 (ligand) VLEVYYTSLRCRCVQESSVFIPRRFIDRIQILPRGNGCPRKEIIVWKKNKSIVCVDPQAEWIQRMMEVLRKRSSSTLPVPVFKRKIP
Result: 0.422
